IC50 reference
Study Target: Ribosomal protein S6 kinase alpha-1 (Homo sapiens, UniProt Q15418)
Sequence (Q15418 whole entry): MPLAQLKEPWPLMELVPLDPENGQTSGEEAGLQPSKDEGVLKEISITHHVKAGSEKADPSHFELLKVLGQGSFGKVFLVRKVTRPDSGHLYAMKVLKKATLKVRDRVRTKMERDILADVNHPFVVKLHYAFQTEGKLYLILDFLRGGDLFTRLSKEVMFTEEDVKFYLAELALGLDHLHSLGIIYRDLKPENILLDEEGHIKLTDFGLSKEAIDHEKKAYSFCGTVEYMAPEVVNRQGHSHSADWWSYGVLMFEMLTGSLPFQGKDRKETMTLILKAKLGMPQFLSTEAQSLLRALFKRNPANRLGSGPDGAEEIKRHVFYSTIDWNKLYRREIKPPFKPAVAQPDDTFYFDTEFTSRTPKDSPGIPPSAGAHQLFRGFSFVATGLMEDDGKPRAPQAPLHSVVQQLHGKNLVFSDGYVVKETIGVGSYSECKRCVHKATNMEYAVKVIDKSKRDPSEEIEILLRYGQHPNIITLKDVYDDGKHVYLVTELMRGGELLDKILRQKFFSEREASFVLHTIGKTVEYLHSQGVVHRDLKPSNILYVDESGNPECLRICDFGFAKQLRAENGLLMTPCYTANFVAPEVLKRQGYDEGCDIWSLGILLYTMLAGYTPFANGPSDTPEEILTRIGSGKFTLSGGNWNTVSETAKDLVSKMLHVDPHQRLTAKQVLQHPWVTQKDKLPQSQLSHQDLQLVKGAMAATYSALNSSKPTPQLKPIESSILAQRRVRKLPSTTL
Just so you know, I need the unit written after the number.

CC1=C(C(=O)Nc2cc3cn[nH]c3cc2F)C(c2ccc(Cl)cc2F)N=C(c2ccnc(Cl)c2)N1 (configuration not stated) : 398 nM

## Input Request body: readout IC50, system Ribosomal protein S6 kinase alpha-1 (Homo sapiens, UniProt Q15418), query CC1=C(C(=O)Nc2ccc3[nH]ncc3c2)C(c2ccc(F)cc2)N=C(c2ccccc2)N1 (configuration not stated) . Return the value.
## Output 5300 nM

----------
Procedure Text: Oral bioavailability in monkey
Type: ADME, organism-based, Macaca mulatta
Condition Context: rhesus monkey, in vivo
Endpoint: bioavailability (%)
Unit % implied. Number only.

## Input Dear colleague, I am looking for the recorded bioavailability of the following molecule: CC1=C(C(=O)Nc2cc3cn[nH]c3cc2F)C(c2ccc(Cl)cc2F)N=C(c2ccnc(Cl)c2)N1 (stereo unspecified)
## Output 19
